metric.name: melting point

molecule | melting point
CCOC(=O)C=CC1=NC(NC(=O)Nc2cccc(C)c2)C(=O)N(CC(=O)N2CCCCCCC2)c2c(C)cccc21 (racemic) [75(1)-1] | 175.2 to 177.7 °C
CC(C)C1=NC(NC(=O)NC2CCCCC2)C(=O)N(CC(=O)N2CC3CCC(CC3)C2)c2ccccc21 (racemic) | 138 to 140 °C
CC1=NC(NC(=O)Nc2cccc(Cl)c2)C(=O)N(CC(=O)N2CC3CCC(CC3)C2)c2c(C)cccc21 (racemic) | 181.2 to 185.1 °C

With those in mind, consider the next molecule.
Enquiry: Supply measured melting point of CC(C)C1=NC(NC(=O)Nc2ccccc2)C(=O)N(CC(=O)N2CC3CCC(CC3)C2)c2ccccc21 (racemic) in your reply.
Return: 132 to 135 °C
